Test system: SR leukemia
test method notes: NCI tumour cell line growth inhibition, 48 h; in the data active = GI50 below about 0.43 µM; inactive = the rest
Possible outcomes: class 1 = active, class 0 = inactive

{"compound": "COc1cc(-c2nccc3[nH]c(-c4ccc5cc[nH]c5c4)nc23)cc(OC)c1OC", "cat": "class 1"}
{"compound": "C=CCN(CC=C)C(=O)c1cc(C)nc2c1c(=O)n(-c1ccccc1)c(=O)n2CCCN1CCN(c2ccccc2OC)CC1", "cat": "class 0"}
{"compound": "Cc1cnc(C(=O)NNc2nc3sc4c(c3c(=O)[nH]2)C(C)CCC4)cn1 (stereo not drawn)", "cat": "class 0"}

====

TGI overview
Tested on: DU-145 prostate
test method notes: NCI tumour cell line growth inhibition, 48 h

{"compound": "COCCN(CCOC)c1nc(-c2ccccc2)nc2ccccc12", "TGI": "> 100 µM"}
{"compound": "c1ccc(COC[C@H]2O[C@@H](c3ccccc3)C[C@@H](OCc3ccccc3)C2OCc2ccccc2)cc1 (stereo partly specified)", "TGI": "> 10 µM"}
{"compound": "COC1(OC)CCc2c(sc3ncnc(Nc4cccc(Br)c4)c23)C1", "TGI": "53.9 µM"}
{"compound": "NS(=O)(=O)c1nnc(NC(=S)NC(=O)Nc2ccc(Cl)c(Cl)c2)s1", "TGI": "53.9 µM"}
{"compound": "COc1ccc(-c2oc3cc(-c4cc5oc(-c6ccc(OC)cc6)c(-c6ccc(OC)cc6)c5cc4OC)c(OC)cc3c2-c2ccc(OC)cc2)cc1", "TGI": "> 100 µM"}
{"compound": "N#Cc1ccccc1OCCOc1ccccc1C#N", "TGI": "> 100 µM"}

Origin of the recorded values: PubChem BioAssay (NCI)
